Species: Homo sapiens
Assay explanation: Selectivity ratio of Ki for human recombinant CB1 receptor to KI for human recombinant CB2 receptor
Entries and their Ratio Ki values follow.

>  <Molecule>
CCC1COc2cccc3c(=O)c(C(=O)NC4CCCCC4)cn1c23 (racemic)

>  <Ratio Ki>
37

$$$$
>  <Molecule>
CC[C@@H]1COc2cccc3c(=O)c(C(=O)NC45CC6CC(CC(C6)C4)C5)cn1c23

>  <Ratio Ki>
40

$$$$
>  <Molecule>
O=C(NC12CC3CC(CC(C3)C1)C2)c1cn2c3c(cccc3c1=O)OCC2c1ccccc1 (racemic)

>  <Ratio Ki>
19

$$$$

---

Species on record: Homo sapiens
Assay explanation: Selectivity ratio of Ki for human recombinant CB1 receptor to KI for human recombinant CB2 receptor
# binarize Ratio Ki: threshold 9 inclusive, high side yes, low side no

>  <Compound>
CC1Oc2cccc3c(=O)c(C(=O)NC4CCCCC4)cn(c23)C1c1ccccc1 (racemic)

>  <Assigned label>
no

$$$$
>  <Compound>
CC(C)[C@H]1COc2cccc3c(=O)c(C(=O)NC45CC6CC(CC(C6)C4)C5)cn1c23

>  <Assigned label>
yes

$$$$
>  <Compound>
CCC1COc2c(N3CCN(C)CC3)ccc3c(=O)c(C(=O)NC45CC6CC(CC(C6)C4)C5)cn1c23 (racemic)

>  <Assigned label>
yes

$$$$
>  <Compound>
CC1(C)COc2cccc3c(=O)c(C(=O)NC45CC6CC(CC(C6)C4)C5)cn1c23

>  <Assigned label>
no

$$$$
>  <Compound>
CC12CC3CC(C)(C1)CC(NC(=O)c1cn4c5c(cccc5c1=O)OCC4c1ccccc1)(C3)C2 (racemic)

>  <Assigned label>
yes

$$$$
>  <Compound>
C[C@H]1COc2cccc3c(=O)c(C(=O)NC45CC6CC(CC(C6)C4)C5)cn1c23

>  <Assigned label>
yes

$$$$
>  <Compound>
CC1COc2cccc3c(=O)c(C(=O)NC4CCCCCC4)cn1c23 (racemic)

>  <Assigned label>
yes

$$$$
>  <Compound>
O=C(NC1CCCC1)c1cn2c3c(cccc3c1=O)OCC2c1ccccc1 (racemic)

>  <Assigned label>
no

$$$$
>  <Compound>
CCC1COc2cccc3c(=O)c(C(=O)NC(C)CCC(C)C)cn1c23 (racemic)

>  <Assigned label>
yes

$$$$
>  <Compound>
C[C@@H]1COc2cccc3c(=O)c(C(=O)NC45CC6CC(CC(C6)C4)C5)cn1c23

>  <Assigned label>
yes

$$$$
>  <Compound>
CC1COc2cccc3c(=O)c(C(=O)NC45CC6CC(CC(C6)C4)C5)cn1c23 (racemic)

>  <Assigned label>
yes

$$$$
>  <Compound>
O=C(NC1CCCCCC1)c1cn2c3c(cccc3c1=O)OCC2c1ccccc1 (racemic)

>  <Assigned label>
yes

$$$$
>  <Compound>
CCC1COc2c(OC)ccc3c(=O)c(C(=O)NC45CC6CC(CC(C6)C4)C5)cn1c23 (racemic)

>  <Assigned label>
yes

$$$$

---

Listing: Ki of selected compounds
Measurement target: Cannabinoid receptor 1 (Rattus norvegicus, UniProt P20272)
Sequence (P20272 whole entry): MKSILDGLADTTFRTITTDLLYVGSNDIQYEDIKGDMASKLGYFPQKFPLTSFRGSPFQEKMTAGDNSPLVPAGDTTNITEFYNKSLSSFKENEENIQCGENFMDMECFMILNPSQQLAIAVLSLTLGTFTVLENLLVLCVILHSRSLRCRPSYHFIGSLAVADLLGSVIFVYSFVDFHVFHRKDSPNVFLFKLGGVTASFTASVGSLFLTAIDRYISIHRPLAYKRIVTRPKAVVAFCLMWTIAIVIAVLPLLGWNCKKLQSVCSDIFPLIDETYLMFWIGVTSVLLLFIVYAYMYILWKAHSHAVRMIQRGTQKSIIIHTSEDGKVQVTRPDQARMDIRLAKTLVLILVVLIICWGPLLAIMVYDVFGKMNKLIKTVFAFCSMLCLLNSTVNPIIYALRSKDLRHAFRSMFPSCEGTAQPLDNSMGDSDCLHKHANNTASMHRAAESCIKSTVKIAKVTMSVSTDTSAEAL
Assay explanation: Displacement of [3H]CP-55940 from CB1 receptor in Sprague-Dawley rat brain by scintillation counting

>  <Compound>
C[C@H]1COc2cccc3c(=O)c(C(=O)NC45CC6CC(CC(C6)C4)C5)cn1c23

>  <Ki>
> 10 µM

$$$$
>  <Compound>
CCC1COc2c(N3CCCC3)ccc3c(=O)c(C(=O)NC45CC6CC(CC(C6)C4)C5)cn1c23 (racemic)

>  <Ki>
> 10 µM

$$$$
>  <Compound>
C[C@@H]1COc2cccc3c(=O)c(C(=O)NC45CC6CC(CC(C6)C4)C5)cn1c23

>  <Ki>
> 10 µM

$$$$
